// data source = patent US20080107658A1

- ASSAYED TARGET: human nerve growth factor (beta-NGF) (human, UniProt P01138 122-241)
- Sequence (P01138 122-241): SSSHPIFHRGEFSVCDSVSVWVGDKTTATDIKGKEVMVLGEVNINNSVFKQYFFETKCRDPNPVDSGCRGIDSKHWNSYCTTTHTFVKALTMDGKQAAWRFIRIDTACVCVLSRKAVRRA
- EXPERIMENT: cell-based or functional assay
MEASUREMENT NAME: IC50, TF-1 cell proliferation (nM)
The reply should contain only the number, in nM.

1133C11 human IgG4 (antibody, V domains shown) VH: EVQLVQSGAEVKKPGSSVKVSCKASGGTFSTYGISWVRQAPGQGLEWIGGIIPIFDTGNSAQSFQGRVTITADESTSTAYMEVSSLRSDDTAVYYCASSSRIYDLNPSLTAYYDMDVWGQGTMVTVSS VL: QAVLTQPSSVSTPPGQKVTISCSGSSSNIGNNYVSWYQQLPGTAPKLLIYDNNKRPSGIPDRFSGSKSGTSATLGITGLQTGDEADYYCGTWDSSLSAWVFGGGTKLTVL : 0.1
G1152H5 human IgG4 (antibody, V domains shown, tested as whole human IgG4; also called germlined 1152H5) VH: QVQLVQSGAEVKKPGSSVKVSCKASGGTFSTYGISWVRQAPGQGLEWMGGIIPIFDTGNSAQSFQGRVTITADESTSTAYMELSSLRSEDTAVYYCARSSRIYDMISSLQPYYDMDVWGQGTMVTVSS VL: QSVLTQPPSVSAAPGQKVTISCSGSSSNIGNNYVSWYQQLPGTAPKLLIYDNNKRPSGIPDRFSGSKSGTSATLGITGLQTGDEADYYCGTWDSSLSAWVFGGGTKLTVL : 0.44
1252A5 IgG4 (antibody, V domains shown, tested as whole human IgG4; also called germlined 1133C11) VH: QVQLVQSGAEVKKPGSSVKVSCKASGGTFSTYGISWVRQAPGQGLEWMGGIIPIFDTGNSAQSFQGRVTITADESTSTAYMELSSLRSEDTAVYYCARSSRIYDLNPSLTAYYDMDVWGQGTMVTVSS VL: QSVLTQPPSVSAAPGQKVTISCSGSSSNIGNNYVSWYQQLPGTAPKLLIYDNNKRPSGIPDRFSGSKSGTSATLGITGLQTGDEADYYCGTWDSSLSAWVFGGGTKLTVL : 0.42

Next item in the queue.
// query Answer with the recorded IC50, TF-1 cell proliferation for the binder listed here: 1152H5 human IgG4 (antibody, V domains shown) VH: EVQLVQSGAEVKKPGSSVKVSCKASGGTFSTYGISWVRQAPGQGLVWIGGIIPIFDTGNSAQSFQGRVTITADESTSTAYMEVSSLRSDDTAVYYCASSSRIYDMISSLQPYYDMDVWGQGTMVTVSS VL: QAVLTQPSSVSTPPGQKATISCSGSSSNIGNNYVSWYQQLPGTAPKLLIYDNNKRPSGIPDRFSGSKSGTSATLGITGLQTGDEADYYCGTWDSSLSAWVFGGGTKLTVL
// result 0.26
